tested on: UMC-11; test: relative viability (nuclei count vs DMSO), 5 days (fraction); higher = more cells survive; conditions: first compound 20 µM
Quick reference: relative viability of the listed items.
observed.property: relative viability

>  <compound>
COCC1(CO)C(=O)C2CCN1CC2 (stereo unspecified) [PRIMA-1MET] + CC(=O)Nc1cccc(-n2c(=O)n(C3CC3)c(=O)c3c(Nc4ccc(I)cc4F)n(C)c(=O)c(C)c32)c1 [Trametinib] (partner 0.02 µM)

>  <observed.property>
relative viability

>  <test.result>
0.749

$$$$
>  <compound>
COCC1(CO)C(=O)C2CCN1CC2 (stereo unspecified) [PRIMA-1MET] + Cc1nc(NC(=O)N2CCC[C@H]2C(N)=O)sc1-c1ccnc(C(C)(C)C(F)(F)F)c1 [Alpelisib] (partner 2 µM)

>  <observed.property>
relative viability

>  <test.result>
0.899

$$$$
>  <compound>
COCC1(CO)C(=O)C2CCN1CC2 (stereo unspecified) [PRIMA-1MET] + Cc1nc(Nc2ncc(C(=O)Nc3c(C)cccc3Cl)s2)cc(N2CCN(CCO)CC2)n1 [Dasatinib] (partner 0.075 µM)

>  <observed.property>
relative viability

>  <test.result>
0.444

$$$$
>  <compound>
COCC1(CO)C(=O)C2CCN1CC2 (stereo unspecified) [PRIMA-1MET] + COc1cc2c(Oc3ccc(NC(=O)C4(C(=O)Nc5ccc(F)cc5)CC4)cc3F)ccnc2cc1OCCCN1CCOCC1 [Foretinib] (partner 0.25 µM)

>  <observed.property>
relative viability

>  <test.result>
1.02

$$$$
>  <compound>
COCC1(CO)C(=O)C2CCN1CC2 (stereo unspecified) [PRIMA-1MET] + N=C(N)NC(=N)NCCc1ccccc1 [Phenformin] (partner 250 µM)

>  <observed.property>
relative viability

>  <test.result>
0.254

$$$$
>  <compound>
COCC1(CO)C(=O)C2CCN1CC2 (stereo unspecified) [PRIMA-1MET] + CC(=O)c1c(C)c2cnc(Nc3ccc(N4CCNCC4)cn3)nc2n(C2CCCC2)c1=O [Palbociclib] (partner 0.5 µM)

>  <observed.property>
relative viability

>  <test.result>
0.278

$$$$
